Would you kindly list T/C for each of these molecules?
- Test system: P388 leukemia ip, CD2F1 mice, survival T/C
- assay_overview: NCI In Vivo Anticancer Drug Screen. Data for tumor model P388 Leukemia (intraperitoneal) in CD2F1 (CDF1) mice
- settings: endpoint: median survival time; dose: 100.0 mg/kg/injection; schedule: Q01DX009 (ip); vehicle: Klucel (hydroxypropylcellulose) (HPC); higher = longer survival
Inconclusive results and toxic doses are left out.

T/C recorded for this molecule, COC(=O)CCC(Cl)(Cl)Cl , is 102 % of control

Record Cn1c(N)c(C(=O)N2CCN(c3ccccc3)CC2)c(=O)n(C)c1=O , field T/C: 97 % of control

Lab note: O=C(NC1CCCCC1)OCc1c(COC(=O)NC2CCCCC2)c(-c2ccc(Cl)c(Cl)c2)n2c1CCC2 gave T/C of 189 % of control

In plain terms, CCNC(=S)N/N=C(/c1ccccc1)c1ccccn1 has a documented T/C of 95 % of control

Entry Cc1cc(N2CCCCC2)cc(=O)o1 , T/C reported as 102 % of control

Memo: O=C(Nc1ccc([N+](=O)[O-])cc1)Nc1ccc([N+](=O)[O-])cc1 (tested in a mixture with another compound) , reported T/C: 103 % of control

// COC(=O)/C=C/c1c[nH]c2nccnc12 : T/C value = 100 % of control

Sample Cc1ccc(S(=O)(=O)N/N=C/c2c(C)noc2C)cc1 ; T/C observed: 95 % of control

Quick note, T/C for CCN(C(=S)NCCCOC)c1ccc(C)cc1 landed at 86 % of control

Record summary for O=C(O)/C=C\C(=O)NCCCCCC(=O)O : reported T/C = 103 % of control

Item: CC(=O)Oc1ccc2ccc(=O)oc2c1OC(C)=O | T/C: 109 % of control

T/C reported for this molecule O=C1C(Cl)=C(NCCO)C(=O)c2ccccc21 : 112 % of control

// field: T/C; key: COc1cccc(/C=C2/C(=O)N(Cc3ccco3)SC2=S)c1OC ; value = 95 % of control

###

Field: T/C. Provide a value for each of the molecules that follow.
- System: P388 leukemia ip, CD2F1 mice, survival T/C
- assay_overview: NCI In Vivo Anticancer Drug Screen. Data for tumor model P388 Leukemia (intraperitoneal) in CD2F1 (CDF1) mice
- settings: endpoint: median survival time; dose: 200.0 mg/kg/injection; schedule: Q01DX001 (ip); vehicle: saline with Tween-80; higher = longer survival
Toxic doses and inconclusive results are not listed.

Looking up CCc1cnc(=S)n(-c2ccccc2)c1 , I found its T/C recorded as 95 % of control

The recorded T/C for entry CCCCNC(=S)NNC(=O)CNC(c1ccc(OC)cc1)C(CC)c1ccc(OC)cc1 (stereo not given) equals 101 % of control

T/C reported for this molecule O=C1/C(=C/c2ccc([N+](=O)[O-])cc2)Cc2c1cccc2[N+](=O)[O-] : 93 % of control

Documented T/C of C=CC1(C)OC(=O)c2cc(C)c(OC)cc21 (stereo not given) : 95 % of control

So, CCSc1cccc2nnc(C(C)(C)C)n12 ? Its T/C was 99 % of control

###

- Tested on: P388 leukemia ip, CD2F1 mice, survival T/C
- assay_overview: NCI In Vivo Anticancer Drug Screen. Data for tumor model P388 Leukemia (intraperitoneal) in CD2F1 (CDF1) mice
- settings: endpoint: median survival time; dose: 400.0 mg/kg/injection; schedule: Q01DX009 (ip); vehicle: saline with Tween-80; higher = longer survival
Inconclusive results and toxic doses are left out.
measure: T/C

Entry Nc1ccn(C2OC(CO)C(O)C2O)c(=O)n1 (configuration not stated) under P388 leukemia ip, CD2F1 mice, survival T/C had T/C of 100 % of control

Hey, P388 leukemia ip, CD2F1 mice, survival T/C data for CN(C)C(=O)c1cccc(COc2ccc(N)cc2Cl)c1 : T/C came out at 95 % of control

Lab entry: P388 leukemia ip, CD2F1 mice, survival T/C assay, compound ClC1(c2ccccc2)c2ccc(Br)cc2-c2cc(Br)ccc21 , T/C = 113 % of control

Noted T/C for O=C(Nc1ccccc1)c1ccccc1C(O)(c1ccccc1)c1ccc(Cl)cc1 (configuration not stated) , tested on P388 leukemia ip, CD2F1 mice, survival T/C: 90 % of control

Simply: O=C(C1=CCCCC1)c1ccc(-c2ccccc2)cc1 , P388 leukemia ip, CD2F1 mice, survival T/C, T/C = 100 % of control

Measured T/C for this entry COC(=O)c1c(C(=O)OC)c(-c2ccc(Cl)c(Cl)c2)n2c1CCC2 on P388 leukemia ip, CD2F1 mice, survival T/C: 88 % of control

The measured T/C that CCC(CC)(COS(C)(=O)=O)COS(C)(=O)=O showed for P388 leukemia ip, CD2F1 mice, survival T/C is 89 % of control

Field T/C (system: P388 leukemia ip, CD2F1 mice, survival T/C) for entry COc1ccc(NC(=O)Oc2ccc3c(C)cc(=O)oc3c2)c(OC)c1 = 91 % of control

Field T/C (system: P388 leukemia ip, CD2F1 mice, survival T/C) for entry COc1nc2ccccc2nc1OC = 97 % of control

CC(=O)OC1C(OC(C)=O)C2C(C)CC3OC(=O)C(C)C3CC2(C)C1OC(C)=O (configuration not stated) on P388 leukemia ip, CD2F1 mice, survival T/C gives T/C = 96 % of control

The measured T/C that CCCCCCCCCCCCCCCCOc1ccccc1CNc1cc(Cl)ccc1Cl showed for P388 leukemia ip, CD2F1 mice, survival T/C is 100 % of control

Form field, T/C with P388 leukemia ip, CD2F1 mice, survival T/C, item CCOC(=O)c1ccc(NC(=O)OCc2ccccc2)cc1 : 107 % of control

###

Record form. Attribute: T/C. Fill in for each entry.
- System: P388 leukemia ip, CD2F1 mice, survival T/C
- assay_overview: NCI In Vivo Anticancer Drug Screen. Data for tumor model P388 Leukemia (intraperitoneal) in CD2F1 (CDF1) mice
- settings: endpoint: median survival time; dose: 400.0 mg/kg/injection; schedule: Q01DX001 (ip); vehicle: Klucel (hydroxypropylcellulose) (HPC); higher = longer survival
Toxic doses and inconclusive results are not listed.

Record Cc1[nH]cnc1CSCCN=C(N)n1[nH]cc(-c2ccc(Cl)cc2)c1=O . Reported T/C: 101 % of control

Lab note: c1ccc(-c2nnn(CCCN3CCOCC3)n2)cc1 gave T/C of 102 % of control

Short answer for C1CSCCSCCCSCCSCCCSCCSC1 : T/C was 97 % of control

Query NC(=S)c1ccc(/C=N/c2nccs2)cc1 yields T/C of 105 % of control

###

- Tested on: P388 leukemia ip, CD2F1 mice, survival T/C
- assay_overview: NCI In Vivo Anticancer Drug Screen. Data for tumor model P388 Leukemia (intraperitoneal) in CD2F1 (CDF1) mice
- settings: endpoint: median survival time; dose: 50.0 mg/kg/injection; schedule: Q04DX003 (ip); vehicle: Klucel (hydroxypropylcellulose) (HPC); higher = longer survival
Toxic doses and inconclusive results are not listed.
For each record, write down the corresponding T/C.

Quick note, T/C for FC(F)(F)C1=C(C(F)(F)F)OP23(OCCC(CO2)O3)O1 (stereo not given) landed at 105 % of control

Lab note: measured T/C of Cc1ccc2c(c1)C1(C)OC(C=CC1=O)O2 (stereo not given) was 98 % of control

Recorded T/C (compound c1ccc(CNCc2ccccc2)cc1 ): 95 % of control

So, NC(CSCCNc1ccc([N+](=O)[O-])cc1[N+](=O)[O-])C(=O)O (stereo not given) ? Its T/C was 100 % of control

The compound listed as CCN(CC)CCNC(=O)c1nn(-c2ccccc2)c2c1CCCc1ccccc1-2 has a reported T/C of 101 % of control

###

Give measured T/C for each item. Keep answers brief.
- Tested on: P388 leukemia ip, CD2F1 mice, survival T/C
- assay_overview: NCI In Vivo Anticancer Drug Screen. Data for tumor model P388 Leukemia (intraperitoneal) in CD2F1 (CDF1) mice
- settings: endpoint: median survival time; dose: 50.0 mg/kg/injection; schedule: Q01DX009 (ip); vehicle: saline with Tween-80; higher = longer survival
Toxic doses and inconclusive results are not listed.

Value of measured T/C for the entry O=C1C2=C(CCC2)C2CCCC12 (stereo not drawn) : 102 % of control

The value of T/C measured for the compound CC(=O)c1ccc(NC(O)C(Cl)(Cl)Cl)cc1 (stereo not drawn) turned out to be 96 % of control

Quick note, T/C for CC(=O)/C=C(\c1ccccc1)c1c(O)c2ccccc2oc1=O landed at 89 % of control

Item: CCOC(=O)C1CC(=O)C1C(=O)OCC (stereo not drawn) | T/C: 100 % of control

Entry under test: CC(=O)CC(=O)CCCC(=O)O . Its T/C was 96 % of control

Record CCC(CC)(COS(C)(=O)=O)COS(C)(=O)=O . Reported T/C: 104 % of control

T/C reported for this compound CCCCCCC(=O)/C=C/c1cc(OC)cc(OC)c1 : 96 % of control

Query COc1ccc(C2(C)C=C(C)C=C(C)C2=O)cc1 (stereo not drawn) yields T/C of 100 % of control

T/C for Cc1ccc([N+](=O)[O-])c2ccccc12 is 109 % of control

// recorded T/C for NC(Cc1ccccc1[N+](=O)[O-])C(=O)O (stereo not drawn) : 92 % of control

Consider COC(=O)C1=C(C(=O)OC)CC1 . Its measured T/C is 109 % of control

Data point: CN(/N=C/c1ccc(N(C)C)cc1)C(=O)c1ccccc1N ; T/C = 100 % of control

Value of T/C reported for the compound O=S1(=O)CN2C=CC=CC2=N1 is 105 % of control
